# credit: patent US20130030000A1

Listed here are molecules together with their documented IC50.
TGT: Human FAAH (Homo sapiens, UniProt O00519)
Construct: The full length FAAH was subcloned into the mammalian expression vector, peDEF.neo
MEASUREMENT_PROTOCOL: Human FAAH lysate assay (CHO cell lysate expressing FAAH, AAMCA or 3H-anandamide hydrolysis)
Type: biochemical
TEST_SETTINGS: B series; read-out: Human FAAH lysate assay: IC50
Structures can show the parent of a compound that is named as a salt.
MEASUREMENT_LABEL: IC50 (nM)

INSERT INTO measurements (molecule, tgt, measurement_label, numeric_result) VALUES
  ('COc1nnc([C@H]2C[C@@H]2c2ccc(-c3ncn(C)c3Sc3ccc(Cl)cn3)cc2)o1 [Example 18B]', 'Human FAAH (Homo sapiens, UniProt O00519)', 'IC50', 15.6),
  ('CN(C)C(=O)C1CC1c1ccc(-c2nc(C3CC3)n(C)c2Sc2ccc(Cl)cn2)cc1 (stereo not shown) [Example 13B, trifluoroacetate]', 'Human FAAH (Homo sapiens, UniProt O00519)', 'IC50', 48.3),
  ('Cn1cnc(-c2ccc([C@H]3C[C@@H]3c3noc(=O)[nH]3)cc2)c1Sc1ccc(Cl)cn1 [Example 36B, trifluoroacetate]', 'Human FAAH (Homo sapiens, UniProt O00519)', 'IC50', 95.4),
  ('Cn1nnc([C@H]2C[C@@H]2c2ccc(-c3ncn(C)c3Sc3ccc(Cl)cn3)cc2)n1 [Example 38B]', 'Human FAAH (Homo sapiens, UniProt O00519)', 'IC50', 37);

###

TGT: Human FAAH (Homo sapiens)
Construct: The full length FAAH was subcloned into the mammalian expression vector, peDEF.neo
Sequence (O00519 1-579): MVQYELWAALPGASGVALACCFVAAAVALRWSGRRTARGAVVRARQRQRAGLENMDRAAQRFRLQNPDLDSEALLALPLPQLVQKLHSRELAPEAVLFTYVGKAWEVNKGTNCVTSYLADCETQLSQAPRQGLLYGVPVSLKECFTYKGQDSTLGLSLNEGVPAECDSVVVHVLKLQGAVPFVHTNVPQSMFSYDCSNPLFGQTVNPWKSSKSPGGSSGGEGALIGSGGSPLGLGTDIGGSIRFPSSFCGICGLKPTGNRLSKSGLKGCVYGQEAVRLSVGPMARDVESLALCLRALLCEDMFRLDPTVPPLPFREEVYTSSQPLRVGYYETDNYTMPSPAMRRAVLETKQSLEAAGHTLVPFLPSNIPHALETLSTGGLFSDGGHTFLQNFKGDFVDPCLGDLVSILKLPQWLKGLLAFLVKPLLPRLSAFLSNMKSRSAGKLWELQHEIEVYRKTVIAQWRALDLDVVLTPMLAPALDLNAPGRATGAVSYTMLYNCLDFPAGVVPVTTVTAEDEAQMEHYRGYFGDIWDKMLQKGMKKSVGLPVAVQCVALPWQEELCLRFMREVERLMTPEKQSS
MEASUREMENT_PROTOCOL: Human FAAH lysate assay (CHO cell lysate expressing FAAH, AAMCA or 3H-anandamide hydrolysis)
Type: biochemical
TEST_SETTINGS: B series; read-out: Human FAAH lysate assay: IC50
Counter-ions that a name gives are not always drawn.
MEASUREMENT_LABEL: IC50 (nM)

INSERT INTO assay_data (molecule, measurement_label, result_unit, numeric_result) VALUES
  ('CN(CCF)C(=O)[C@H]1C[C@@H]1c1ccc(-c2ncn(C)c2Sc2ccc(Cl)cn2)cc1 [Example 11B]', 'IC50', 'nM', 3),
  ('Cn1cnc(-c2ccc([C@H]3C[C@@H]3C(C)(C)O)cc2)c1Sc1ccc(Cl)cn1 [Example 22B]', 'IC50', 'nM', 8.7),
  ('Cc1nc(-c2ccc([C@@H]3C[C@H]3C(=O)N(C)C)cc2)c(Sc2ccc(Cl)cn2)n1C [Example 12B]', 'IC50', 'nM', 13.6),
  ('Cn1cnc(-c2ccc([C@H]3C[C@@H]3c3n[nH]c(=S)[nH]3)cc2)c1Sc1ccc(Cl)cn1 [Example 32B]', 'IC50', 'nM', 304),
  ('COC[C@H]1C[C@@H]1c1ccc(-c2ncn(C)c2Sc2ccc(Cl)cn2)cc1 [Example 24B]', 'IC50', 'nM', 35.5),
  ('CN(C)C(=O)[C@H]1C[C@@H]1c1ccc(-c2ncn(CCF)c2Sc2ccc(Cl)cn2)cc1 [Example 14B, trifluoroacetate]', 'IC50', 'nM', 3.2),
  ('CN(C)C(=O)C1CC1c1ccc(-c2ncn(C)c2Sc2ccc(Cl)cn2)cc1 (stereo not shown)', 'IC50', 'nM', 1.4),
  ('Cc1nnc([C@H]2C[C@@H]2c2ccc(-c3ncn(C)c3Sc3ccc(Cl)cn3)cc2)o1 [Example 19B]', 'IC50', 'nM', 46),
  ('CN(C)C(=O)[C@H]1C[C@@H]1c1ccc(-c2ncn(C)c2Sc2ccc(Cl)cc2)cc1', 'IC50', 'nM', 0.3),
  ('Cn1cnc(-c2ccc([C@H]3C[C@@H]3c3ncon3)cc2)c1Sc1ccc(Cl)cn1 [Example 35B]', 'IC50', 'nM', 58.4),
  ('Cn1cnc(-c2ccc([C@H]3C[C@@H]3c3n[nH]c(=O)[nH]3)cc2)c1Sc1ccc(Cl)cn1 [Example 33B]', 'IC50', 'nM', 545),
  ('CN(C)C(=O)[C@H]1C[C@@H]1c1ccc(-c2nc[nH]c2Sc2ccc(Cl)cn2)cc1 [Example 20B]', 'IC50', 'nM', 650),
  ('Cn1cnc(-c2ccc([C@H]3C[C@@H]3c3n[nH]c(=O)n3C)cc2)c1Sc1ccc(Cl)cn1 [Example 34B]', 'IC50', 'nM', 893),
  ('Cn1cnc(-c2ccc([C@H]3C[C@@H]3C(=O)NCCF)cc2)c1Sc1ccc(Cl)cn1', 'IC50', 'nM', 1.5),
  ('Cn1cnc(-c2ccc([C@H]3C[C@@H]3CO)cc2)c1Sc1ccc(Cl)cn1 [Example 23B]', 'IC50', 'nM', 88.4),
  ('Cn1cnc(-c2ccc([C@H]3C[C@@H]3c3nn[nH]n3)cc2)c1Sc1ccc(Cl)cn1 [Example 37B, trifluoroacetate]', 'IC50', 'nM', 167);
